These data points were gathered from PubChem BioAssay AID485313.

# ASSAY INFO: qHTS Assay for NPC1 Promoter Activators; also: nearly all actives have a fitted effect of over 60% in size;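 as to activation: reporter is driven by a mutant NPC1 promoter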
# CONDITION CONTEXT: Huh7 NPC1 promoter luciferase reporter, 24 h; series mostly up to 9.22 µM
Hit rate of the full screen: of about 320,000 compounds, about 7,600 (2.4%) were called active. Not shown: some 3% with an inconclusive outcome. Calls follow the shape of the dose curve; as a rule, active = well fitted activation curve with a large enough effect; inconclusive = small, poorly fitted or top-dose-only effect; inactive = no such curve, though single readings can be large or run the other way. The entries come from a sample that favours actives as a whole.
Answer with one of the outcomes given here: active, inactive

CNCC[C@H](Oc1ccc(C(F)(F)F)cc1)c1ccccc1 = inactive

**Query** // return assay outcome for "CN(C)C(=O)Oc1ccc(OCc2cccc[n+]2C)cc1"
**Result** inactive

**Query** Would you mind telling me which call this test gave "CC(=O)c1c(O)c(C)c(O)c(Cc2c(O)c3c(c(C(=O)/C=C/c4ccccc4)c2O)OC(C)(C)C=C3)c1O" ?
**Result** inactive

**Query** Identify the outcome logged in this assay for the compound shown: "CC(=O)Oc1ccccc1C(=O)Nc1ncc([N+](=O)[O-])s1"
**Result** active

**Query** Hello, I am checking results. What call was entered for CN(C)c1ccc(NC(=O)CN2C3CCCC2CC(NC(=O)c2ccccc2)C3)cc1 (stereo unspecified) ?
**Result** inactive

**Query** How did this test come out for "CCOC(=O)c1ncn2c1[C@@H]1CCCN1C(=O)c1cc(OC)ccc1-2" ?
**Result** inactive
